# assayTarget: CYP1A (Homo sapiens)
# Sequence (P05177 whole entry): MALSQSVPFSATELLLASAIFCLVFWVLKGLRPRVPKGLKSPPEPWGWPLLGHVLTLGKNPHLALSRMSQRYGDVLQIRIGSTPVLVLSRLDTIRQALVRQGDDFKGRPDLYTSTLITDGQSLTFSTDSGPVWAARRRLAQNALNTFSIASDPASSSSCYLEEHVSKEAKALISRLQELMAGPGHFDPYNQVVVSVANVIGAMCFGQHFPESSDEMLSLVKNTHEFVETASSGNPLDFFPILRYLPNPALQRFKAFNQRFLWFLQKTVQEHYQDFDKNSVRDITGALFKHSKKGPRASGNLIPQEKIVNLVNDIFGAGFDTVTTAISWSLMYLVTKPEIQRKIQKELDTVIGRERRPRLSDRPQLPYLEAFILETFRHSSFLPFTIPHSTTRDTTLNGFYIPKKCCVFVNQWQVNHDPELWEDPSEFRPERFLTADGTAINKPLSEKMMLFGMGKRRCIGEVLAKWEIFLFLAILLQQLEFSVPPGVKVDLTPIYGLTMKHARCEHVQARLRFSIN
# method: Cytochrome P450 Inhibition (CYP panel)
# Format: in vitro ADME
# conditionLabel: human, human liver microsomes, probe phenacetin; 1 μM; read-out: % inhibition
recordedMetric: inhibition at 1 µM
Put your answer as a value accompanied by its unit after it.

CC(C)=CCC[C@H](CO)[C@@H]1CC[C@@H](C)c2c1cc(C)c(O)c2O [Compound 1, 7,8,18-trihydroxyserrulat-14-ene]
28%

// moving on: another record for inhibition at 1 µM
// recorded inhibition at 1 µM for CC(C)=CCC[C@@H]1C(O)Oc2c(C)cc(O)c3c2[C@H]1CC[C@H]3C (some centres unmarked) : 38%
